Values were extracted from patent US7803930B2.

Listing of entries alongside the reported % Change in apolipoprotein B mRNA expression.
Test system: human apolipoprotein B mRNA
Assay: Inhibition of human apolipoprotein B mRNA levels in HepG2 cells, quantitative real-time PCR
Format: cell-based
Conditions: HepG2 cells; 150 nM; 24 hour (Table 40)
e = 2'-O-(2-methoxyethyl) (MOE); d = 2'-deoxy (DNA)
PROPERTY_NAME: % Change in apolipoprotein B mRNA expression

SUBSTANCE	REPORTED_MEASUREMENT
332771 (antisense GCCTCAGTCTTATTCGCACC; sugars from the 5' end e5 d10 e5, all phosphorothioate, methylation of C not given here) [compound 332771]	+37%
332776 (antisense GCCTAATTATTATTATCACC; sugars from the 5' end e5 d10 e5, all phosphorothioate, methylation of C not given here) [compound 332776]	+20%
332772 (antisense GCCTCAGTATTATTCGCACC; sugars from the 5' end e5 d10 e5, all phosphorothioate, methylation of C not given here) [compound 332772]	+84%

====

Test system: human apolipoprotein B mRNA
Assay: Inhibition of human apolipoprotein B mRNA levels in HepG2 cells, quantitative real-time PCR
Format: cell-based
Conditions: HepG2 cells treated with 150 nM of compound; averages from two experiments; quantitative real-time PCR
In the oligonucleotide strings, read from the 5' end, every base follows the letter of its sugar. An asterisk marks phosphorothioate; unmarked linkages are phosphodiester. Other units and linkages are bracketed, terminal groups are in braces. A string of capitals states the bases alone. e = 2'-O-(2-methoxyethyl) (MOE); [5mC] = 5-methylcytosine; d = 2'-deoxy (DNA)
Rule: % INHIB (inhibition of human apolipoprotein B mRNA levels) of 80% or more gives yes (1); anything lower gives no (0).

SUBSTANCE	SYSTEM	DISCRETE_LABEL
271004 (antisense eG*e[5mC]*eT*e[5mC]*e[5mC]*dT*d[5mC]*dT*d[5mC]*d[5mC]*d[5mC]*dA*dA*dG*dA*eT*eG*e[5mC]*eG*eG) [compound 271004]	human apolipoprotein B mRNA	no (0)
271002 (antisense eA*eA*eT*e[5mC]*eT*d[5mC]*dG*dA*dT*dG*dA*dG*dG*dT*d[5mC]*eA*eG*e[5mC]*eT*eG) [compound 271002]	human apolipoprotein B mRNA	no (0)
281596 (eT*eG*eA*e[5mC]*eT*dG*d[5mC]*dT*dT*d[5mC]*dA*dT*d[5mC]*dA*d[5mC]*eT*eG*eA*eG*eG; antisense) [compound 281596]	human apolipoprotein B mRNA	no (0)
271039 (eT*eA*eG*eA*eG*dG*d[5mC]*dT*dA*dA*d[5mC]*dG*dT*dA*d[5mC]*e[5mC]*eA*eT*e[5mC]*eT; antisense) [compound 271039]	human apolipoprotein B mRNA	no (0)
301041 (eG*eA*eG*eT*eT*d[5mC]*dA*dG*dA*dG*dA*d[5mC]*d[5mC]*dT*dT*e[5mC]*e[5mC]*eG*eA*eG; antisense) [compound 301041]	human apolipoprotein B mRNA	yes (1)

====

Each entry below carries its recorded % INHIB (inhibition of human apolipoprotein B mRNA levels).
System: human apolipoprotein B mRNA
Assay: Inhibition of human apolipoprotein B mRNA levels in HepG2 cells, quantitative real-time PCR
Format: cell-based
Details: HepG2 cells treated with 150 nM of compound; averages from two experiments; quantitative real-time PCR
In the oligonucleotide strings, read from the 5' end, every base follows the letter of its sugar. An asterisk marks phosphorothioate; unmarked linkages are phosphodiester. Other units and linkages are bracketed, terminal groups are in braces. A string of capitals states the bases alone. e = 2'-O-(2-methoxyethyl) (MOE); [5mC] = 5-methylcytosine; d = 2'-deoxy (DNA)
PROPERTY_NAME: % INHIB (inhibition of human apolipoprotein B mRNA levels)

SUBSTANCE	REPORTED_MEASUREMENT
271049 (eG*eT*e[5mC]*e[5mC]*eA*dG*d[5mC]*d[5mC]*dA*dA*d[5mC]*dT*dA*dT*dA*e[5mC]*eT*eT*eG*eG; antisense) [compound 271049]	54%
271028 (e[5mC]*eG*e[5mC]*eA*eG*dG*dT*d[5mC]*dA*dG*d[5mC]*d[5mC]*dT*dG*dA*e[5mC]*eT*eA*eG*eA; antisense) [compound 271028]	98%
271020 (antisense eT*eT*eG*eA*eA*dT*d[5mC]*d[5mC]*dA*dG*dG*dA*dT*dG*d[5mC]*eA*eG*eT*eA*e[5mC]) [compound 271020]	35%
281636 (antisense eG*e[5mC]*eA*eA*eG*dA*dG*dT*d[5mC]*d[5mC]*dA*d[5mC]*d[5mC]*dA*dA*eT*e[5mC]*eA*eG*eA) [compound 281636]	68%
281643 (eG*eA*e[5mC]*eA*eT*dT*dT*dG*d[5mC]*d[5mC]*dA*dT*dG*dG*dA*eG*eA*eG*eA*eG; antisense) [compound 281643]	61%

====

Test system: rabbit apolipoprotein B mRNA
Assay: Inhibition of rabbit apolipoprotein B mRNA levels in primary rabbit hepatocytes, real-time PCR
Format: cell-based
Parameters: concentration or dose not given beside the values
In the oligonucleotide strings, read from the 5' end, every base follows the letter of its sugar. An asterisk marks phosphorothioate; unmarked linkages are phosphodiester. Other units and linkages are bracketed, terminal groups are in braces. A string of capitals states the bases alone. e = 2'-O-(2-methoxyethyl) (MOE); [5mC] = 5-methylcytosine; d = 2'-deoxy (DNA)
PROPERTY_NAME: % INHIB of rabbit apolipoprotein B mRNA levels

                                  substance  reported_measurement
0  233178 (antisense eG*eA*eT*eA*eA*d[5mC]*dT*d[5mC]*dT*dG*dT*dG*dA*dG*dG*eG*eT*eA*eG*e[5mC]) [compound 233178]                    0%
1  233170 (antisense eT*eT*eG*eA*eT*d[5mC]*dT*dA*dT*dA*dA*dT*dA*d[5mC]*dT*eA*eG*e[5mC]*eT*eA) [compound 233170]                   23%
2  233185 (antisense e[5mC]*eA*eA*e[5mC]*eA*dA*dT*dG*dT*d[5mC]*dT*dG*dA*dT*dT*eG*eG*eT*eT*eA) [compound 233185]                   73%
3  233180 (antisense eA*eA*eG*eA*eT*dG*d[5mC]*dA*dG*dT*dA*d[5mC]*dT*dA*d[5mC]*eT*eT*e[5mC]*e[5mC]*eA) [compound 233180]                   13%

====

System: human apolipoprotein B mRNA
Experiment: Inhibition of human apolipoprotein B mRNA levels in HepG2 cells, quantitative real-time PCR
Assay type: cell-based
Conditions: HepG2 cells; 50 nm oligonucleotide; variable deoxy gap position

SUBSTANCE	SYSTEM	% INHIB 50 nm
308647 (antisense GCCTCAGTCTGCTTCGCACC; 4-10-6 2'-MOE gapmer, phosphorothioate, chemistry not fully specified) [compound 308647]	human apolipoprotein B mRNA	53%
308652 (antisense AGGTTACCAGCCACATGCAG; 7-10-3 2'-MOE gapmer, phosphorothioate, chemistry not fully specified) [compound 308652]	human apolipoprotein B mRNA	73%
308655 (antisense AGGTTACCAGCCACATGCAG; 8-10-2 2'-MOE gapmer, phosphorothioate, chemistry not fully specified) [compound 308655]	human apolipoprotein B mRNA	84%
308646 (antisense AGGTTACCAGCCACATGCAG; 4-10-6 2'-MOE gapmer, phosphorothioate, chemistry not fully specified) [compound 308646]	human apolipoprotein B mRNA	50%
308631 (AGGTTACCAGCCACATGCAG; 0-10-10 MOE gapmer, phosphorothioate, chemistry not fully specified) [compound 308631]	human apolipoprotein B mRNA	74%
